target: PEG-3 (UniProt Q6IN02); assay: GAPDH versus PEG-3 reporter suppression – cell-based, luminescence, counter-screen for PEG-3 promoter inhibitor project, SAR follow-up (AID 651551); details: HeLa PEG-Prom / GAPDH luciferase reporter, 6 or 24 h, mean of runs, 24 h
Active and inactive are the calls of the source.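 Rule for the calls: active = compounds blocking the Peg3 reporter with IC50 up to 10 µM at 6 or 24 hours, yet inert on a control reporter; inactive = the rest.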
recorded_metric: IC50

| structure_string | recorded_metric | meas_value |
| --- | --- | --- |
| O=C(Nc1nc2ccccc2s1)c1nn(-c2ccccc2)c(=O)c2ccccc12 | IC50 | > 99 µM (inactive) |
| Cc1ccc(Cl)cc1Nc1nc(-c2sc(NC(=O)c3ccco3)nc2C)cs1 | IC50 | inactive |
| Cc1cc(NC(=O)c2ccccc2C)n(-c2nc3ccccc3[nH]2)n1 | IC50 | inactive |
